Every entry's value here was drawn from PubChem BioAssay AID1159580.

Recorded normalized growth values for a group of compounds are listed next.
- assay: chemical genetic growth profiling, strain panel (AID 1159580);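 note: tested at 20 µM; growth read once vehicle control cultures reached saturation at 30 °C; 1 = growth at the plate median or of vehicle wells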
- runConditions: S. cerevisiae deletion strains, growth OD, locus YLR262C, strain YPT6, stronger effect = lower value
Among all 5,500 compounds or so, about 2,000 (36%) were called active. Roughly 18% stayed inconclusive and do not appear here. This is one part of the list.

>  <compound>
NNCc1cccc(O)c1

>  <normalized growth>
0.892 (inactive)

$$$$
>  <compound>
N=C(N)N

>  <normalized growth>
1.01 (inactive)

$$$$

API: the following record is the query input.
Just so you know, measured normalized growth for CC(=O)O[C@H]1CC[C@@]2(C)C(C[C@@H](OC(C)=O)[C@@]3(C)C4=CC(=O)O[C@@H](c5ccoc5)[C@]4(C)CCC23)C1(C)C (stereo partly drawn) came out at 1.02 (inactive)

---

- assay: chemical genetic growth profiling, strain panel (AID 1159580)
- runConditions: S. cerevisiae deletion strains, growth OD, locus YKR026C, strain gcn3
Screen size: about 5,500 compounds; about 2,000 (36%) were called active. About 18% were inconclusive and are not listed. Cut-off read from the data, not from the text of the source: active = normalized growth mostly below about 0.91 (no sharp cut-off); inconclusive = no clear call, values can overlap the other calls; inactive = mostly above about 0.92. Some of the results follow.
// classify into active, inactive

Some solved entries appear below for comparison.
>  <compound>
CC1(C)CC2C1CC[C@]1(CBr)CCC3C(CC(=O)O)C(=O)O[C@@]32C1 (stereo partly specified)

>  <qualitativeLabel>
inactive

$$$$
>  <compound>
NS(=O)(=O)c1cc2c(cc1Cl)NC(CSCc1ccccc1)=NS2(=O)=O

>  <qualitativeLabel>
inactive

$$$$
>  <compound>
CN(C)CCCN1c2ccccc2Sc2ccc(C(F)(F)F)cc21

>  <qualitativeLabel>
inactive

$$$$
>  <compound>
CN(C)CCCN1c2ccccc2Sc2ccc(Cl)cc21

>  <qualitativeLabel>
active

$$$$
>  <compound>
Oc1c(Cl)cc(Cl)cc1Sc1cc(Cl)cc(Cl)c1O

>  <qualitativeLabel>
active

$$$$

Prompt: Dear colleague, could you share the recorded outcome for "CC(C)=CCc1c2c(c3occ(-c4ccc(O)c(O)c4)c(=O)c3c1O)C=CC(C)(C)O2" when you have a moment?
Response: inactive

Prompt: Dear colleague, could you share the recorded outcome for "O=C(O)C1=CCCNC1" when you have a moment?
Response: inactive

Prompt: Dear colleague, could you share the recorded outcome for "CNCCCC12CCC(c3ccccc31)c1ccccc12" when you have a moment?
Response: inactive

Prompt: Dear colleague, could you share the recorded outcome for "CN(C)CCCN1c2ccccc2Sc2ccccc21" when you have a moment?
Response: inactive

Prompt: Dear colleague, could you share the recorded outcome for CC1(C)CC2C1CC[C@]1(C)CCC3C(C(=O)O)CC(=O)O[C@@]32C1 (stereo partly specified) when you have a moment?
Response: inactive

---

- assay: chemical genetic growth profiling, strain panel (AID 1159580)
- runConditions: S. cerevisiae deletion strains, growth OD, locus YMR263W, strain SAP30
Out of some 5,500 compounds screened, about 2,000 (36%) were called active. Not shown: some 18% with an inconclusive outcome. No stated cut-off is given here; in the data, active means normalized growth mostly below about 0.91 (no sharp cut-off); inconclusive means no clear call, values can overlap the other calls; inactive means mostly above about 0.92. Some of the results follow.
// classify into Yes = active, No = inactive

>  <compound>
N#CC(c1ccccc1)N1CCCCC1 (centres undefined)

>  <qualitativeLabel>
No

$$$$
>  <compound>
Cc1scc2c1N(C(=O)CN1CCN(C)CC1)c1ccccc1NC2=O

>  <qualitativeLabel>
No

$$$$
>  <compound>
CCCc1cc(=O)oc2c1c(C)nn2-c1ccccc1

>  <qualitativeLabel>
No

$$$$
>  <compound>
CS(=O)(=O)c1ccc([C@@H](O)[C@@H](CO)NC(=O)C(Cl)Cl)cc1

>  <qualitativeLabel>
No

$$$$
>  <compound>
OCc1ccccc1-c1ccccc1

>  <qualitativeLabel>
No

$$$$

Prompt: Dear colleague, could you share the recorded outcome for "CC1(C)CCC=[N+]1[O-]" when you have a moment?
Response: No

Prompt: Dear colleague, could you share the recorded outcome for "c1ccc(-c2csc(-c3ccncc3)n2)cc1" when you have a moment?
Response: No

Prompt: Dear colleague, could you share the recorded outcome for COc1ccc(C2Sc3ccccc3N(CCN(C)C)C(=O)C2OC(C)=O)cc1 (centres undefined) when you have a moment?
Response: No

Prompt: Dear colleague, could you share the recorded outcome for "CC(=O)N[C@@H](Cc1c[nH]c2ccccc12)C(=O)OCc1cc(C(F)(F)F)cc(C(F)(F)F)c1" when you have a moment?
Response: No

Prompt: Dear colleague, could you share the recorded outcome for Cc1o[nH]c(=O)c1CC(N)C(=O)O (centres undefined) when you have a moment?
Response: No

Prompt: Dear colleague, could you share the recorded outcome for CC(C)CC(NC(=O)OCC1c2ccccc2-c2ccccc21)C(=O)O (centres undefined) when you have a moment?
Response: No

---

- assay: chemical genetic growth profiling, strain panel (AID 1159580);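 note: tested at 20 µM; growth read once vehicle control cultures reached saturation at 30 °C; 1 = growth at the plate median or of vehicle wells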
- runConditions: S. cerevisiae deletion strains, growth OD, locus YLR418C, strain cdc73, stronger effect = lower value
Hit rate of the full screen: of about 5,500 compounds, about 2,000 (36%) were called active. Inconclusive results (about 18%) are left out. This is one part of the list.
So basically, if normalized growth comes in under 1 it's YES, and if it's 1 or more it's NO.

Some solved entries appear below for comparison.
>  <molecule>
CC(=O)Oc1cccc(O)c1

>  <qualitativeLabel>
NO

$$$$
>  <molecule>
CC(=O)Oc1ccc(/C=C/c2cc(OC(C)=O)cc(OC(C)=O)c2)cc1

>  <qualitativeLabel>
YES

$$$$
>  <molecule>
O=C(OCc1ccccc1)c1ccccc1

>  <qualitativeLabel>
YES

$$$$
>  <molecule>
COc1ccc(C2Sc3ccccc3N(CCN(C)C)C(=O)C2OC(C)=O)cc1 (centres undefined)

>  <qualitativeLabel>
NO

$$$$
>  <molecule>
CC(C)=CCc1c2c(c3occ(-c4ccc(O)cc4)c(=O)c3c1O)C=CC(C)(C)O2

>  <qualitativeLabel>
YES

$$$$

Prompt: normalized growth under 1? Item: "CC(C)=CCc1c2c(c3occ(-c4ccc(O)c(O)c4)c(=O)c3c1O)C=CC(C)(C)O2"
Response: YES

Prompt: normalized growth under 1? Item: CC(N=C(NC#N)Nc1ccncc1)C(C)(C)C (centres undefined)
Response: NO

Prompt: normalized growth under 1? Item: "CC(=O)Oc1ccc(O)cc1"
Response: YES

---

Recorded normalized growth values for a group of compounds are listed next.
- assay: chemical genetic growth profiling, strain panel (AID 1159580);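 note: tested at 20 µM; growth read once vehicle control cultures reached saturation at 30 °C; 1 = growth at the plate median or of vehicle wells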
- runConditions: S. cerevisiae deletion strains, growth OD, locus YLR058C, strain SHM2, stronger effect = lower value
The whole screen tested about 5,500 compounds, of which about 2,000 (36%) were called active. Roughly 18% stayed inconclusive and do not appear here. The list shows a part of the results.
Output: the number by itself.

// worked examples, normalized growth included
>  <compound>
CCN1CCN(C(=O)NC(C(=O)N[C@@H]2C(=O)N3[C@@H]2SC(C)(C)[C@@H]3C(=O)O)c2ccccc2)C(=O)C1=O (some centres undefined)

>  <normalized growth>
1.02

$$$$
>  <compound>
CC(=O)c1ccc(O)c(CC=C(C)C)c1

>  <normalized growth>
0.977

$$$$
>  <compound>
C=C1c2cccc(O)c2C(O)=C2C(=O)[C@]3(O)C(O)=C(C(N)=O)C(=O)[C@@H](N(C)C)[C@@H]3[C@@H](O)[C@H]12

>  <normalized growth>
0.975

$$$$

Just so you know, measured normalized growth for "C=C1c2c(Cl)ccc(O)c2C(O)=C2C(=O)[C@]3(O)C(O)=C(C(N)=O)C(=O)[C@@H](N(C)C)[C@@H]3[C@@H](O)[C@H]12" came out at 0.937

---

- assay: chemical genetic growth profiling, strain panel (AID 1159580);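 note: tested at 20 µM; growth read once vehicle control cultures reached saturation at 30 °C; 1 = growth at the plate median or of vehicle wells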
- runConditions: S. cerevisiae deletion strains, growth OD, locus YLR262C, strain YPT6 (second series)
About 2,000 (36%) of roughly 5,500 compounds were called active. About 18% were inconclusive and are not listed. Cut-off read from the data, not from the text of the source: active = normalized growth mostly below about 0.91 (no sharp cut-off); inconclusive = no clear call, values can overlap the other calls; inactive = mostly above about 0.92. The list shows a part of the results.
// classify into active, inactive

>  <compound>
N[C@@H](CCC(=O)N[C@@H](CS)C(=O)NCC(=O)O)C(=O)O

>  <qualitativeLabel>
inactive

$$$$
>  <compound>
CCC(C)[C@H]1O[C@]2(C=C[C@@H]1C)C[C@@H]1C[C@@H](C/C=C(\C)[C@@H](OC3C[C@H](OC)C(O[C@H]4C[C@H](OC)[C@@H](O)[C@H](C)O4)[C@H](C)O3)[C@@H](C)/C=C/C=C3\CO[C@@H]4[C@H](O)C(C)=C[C@@H](C(=O)O1)[C@]34O)O2 (some centres undefined)

>  <qualitativeLabel>
active

$$$$
>  <compound>
CC(=O)O[C@H]1CC[C@@]2(C)C(C[C@@H](OC(C)=O)[C@@]3(C)C4=CC(=O)O[C@@H](c5ccoc5)[C@]4(C)CCC23)C1(C)C (some centres undefined)

>  <qualitativeLabel>
inactive

$$$$
>  <compound>
NCC(=O)c1ccccc1

>  <qualitativeLabel>
inactive

$$$$
>  <compound>
CN(C)[C@@H]1C(=O)C(C(N)=O)=C(O)[C@@]2(O)C(=O)C3=C(O)c4c(O)ccc(Cl)c4[C@@](C)(O)[C@H]3C[C@@H]12

>  <qualitativeLabel>
inactive

$$$$

Prompt: Dear colleague, could you share the recorded outcome for "COC(=O)c1c(OC)cc2c(c1C)Oc1c(Cl)c(OC(C)=O)c(Cl)c(C)c1C(=O)O2" when you have a moment?
Response: inactive

Prompt: Dear colleague, could you share the recorded outcome for "COC(=O)c1c(OC)cc2c(c1C)Oc1c(Cl)c(O)c(Cl)c(C)c1C(=O)O2" when you have a moment?
Response: inactive

Prompt: Dear colleague, could you share the recorded outcome for C/C=C\C1=C(C(=O)O)N2C(=O)C(NC(=O)C(N)c3ccc(O)cc3)C2SC1 (centres undefined) when you have a moment?
Response: inactive

Prompt: Dear colleague, could you share the recorded outcome for "CC(=O)Oc1ccc(O)cc1" when you have a moment?
Response: inactive

Prompt: Dear colleague, could you share the recorded outcome for "NC(=O)NC(=O)Cc1ccccc1" when you have a moment?
Response: inactive

Prompt: Dear colleague, could you share the recorded outcome for CC(=O)O[C@H]1CCC2(C)C3=C(CCC2C1(C)C)[C@]1(C)CCC(C(C)CCC=C(C)C)[C@@]1(C)CC3 (some centres undefined) when you have a moment?
Response: inactive

Prompt: Dear colleague, could you share the recorded outcome for "Cc1nc(N)cc(C[n+]2csc(CCO)c2C)n1" when you have a moment?
Response: inactive

Prompt: Dear colleague, could you share the recorded outcome for "CN(C)C(=O)Oc1cccc([N+](C)(C)C)c1" when you have a moment?
Response: inactive

Prompt: Dear colleague, could you share the recorded outcome for "CC(=O)Oc1ccc(C(c2ccc(OC(C)=O)cc2)c2ccccn2)cc1" when you have a moment?
Response: inactive

Prompt: Dear colleague, could you share the recorded outcome for CC(C)=CCCC(C)[C@@H]1CC[C@]2(C)C3=C(CC[C@@]12C)C1(C)CC[C@H](O)C(C)(C)C1CC3 (some centres undefined) when you have a moment?
Response: active
